Attribution: patent US8952157B2

# Ki per record follows
# subject.of.test: GST-Bcl-2 (Homo sapiens (Human), UniProt P10415)
# Sequence (P10415 whole entry): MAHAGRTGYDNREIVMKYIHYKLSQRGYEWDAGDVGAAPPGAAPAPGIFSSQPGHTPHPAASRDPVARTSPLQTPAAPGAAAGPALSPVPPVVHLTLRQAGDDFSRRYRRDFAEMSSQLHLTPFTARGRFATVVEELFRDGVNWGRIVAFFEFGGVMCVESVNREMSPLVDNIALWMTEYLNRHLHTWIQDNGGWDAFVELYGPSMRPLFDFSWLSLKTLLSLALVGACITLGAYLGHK
# assay.explanation: Time Resolved-Fluorescence Resonance Energy Transfer (TR-FRET) Bcl-2 binding assay
# condition.info: GST-Bcl-2 1 nM, F-Bak peptide probe 100 nM, Tb-anti-GST antibody 1 nM; Ki by Wang's equation
quantity: Ki (nM)

INSERT INTO measurements (smiles_representation, unit_text, cmp, result_value) VALUES
  ('CC(=O)Nc1cccc(Oc2cc(N3CCN(CC4=C(c5ccc(Cl)cc5)CC(C)(C)CC4)CC3)ccc2C(=O)NS(=O)(=O)c2ccc(NC3CCN(C4CCOCC4)CC3)c([N+](=O)[O-])c2)c1', 'nM', '=', 3.28),
  ('CC1(C)CCC(CN2CCN(c3ccc(C(=O)NS(=O)(=O)c4ccc(OCC5(F)CCOCC5)c(Cl)c4)c(Oc4cnc(N)c(Cl)c4)c3)CC2)=C(c2ccc(Cl)cc2)C1', 'nM', '=', 0.069),
  ('CC1(C)CCC(CN2CCN(c3ccc(C(=O)NS(=O)(=O)c4ccc(OCC5(F)CCOCC5)c([N+](=O)[O-])c4)c(Oc4cc5cc[nH]c5cc4F)c3)CC2)=C(c2ccc(Cl)cc2)C1', 'nM', '<', 0.01),
  ('CC(C)(C)OC(=O)N1CCN(c2cccc(Oc3cc(N4CCN(Cc5ccccc5-c5ccc(Cl)cc5)CC4)ccc3C(=O)NS(=O)(=O)c3ccc(NCC4CCOCC4)c([N+](=O)[O-])c3)c2)CC1', 'nM', '>', 1200),
  ('CC(C)N1CCC(Nc2ccc(S(=O)(=O)NC(=O)c3ccc(N4CCN(CC5=C(c6ccc(Cl)cc6)CC(C)(C)CC5)CC4)cc3Oc3ccccc3Cl)cc2[N+](=O)[O-])CC1', 'nM', '=', 0.027);

====

# pKi per record follows
# subject.of.test: GST-Bcl-2 (Homo sapiens (Human))
# assay.explanation: Time Resolved-Fluorescence Resonance Energy Transfer (TR-FRET) Bcl-2 binding assay
# condition.info: GST-Bcl-2 1 nM, F-Bak peptide probe 100 nM, Tb-anti-GST antibody 1 nM; Ki by Wang's equation
pKi: −log10 of the molar value.
quantity: pKi

INSERT INTO measurements (compound, quantity, cmp, result_value) VALUES
  ('CC1(C)CC(c2ccc(Cl)cc2)=C(CN2CCN(c3ccc(C(=O)NS(=O)(=O)c4cnc(OCC5(F)CCOCC5)c(Cl)c4)c(Oc4cnc(N)c(Cl)c4)c3)CC2)CO1', 'pKi', '>', 11.00),
  ('CN(C)C(=O)c1ccccc1Oc1cc(N2CCN(Cc3ccccc3-c3ccc(Cl)cc3)CC2)ccc1C(=O)NS(=O)(=O)c1ccc(NCC2CCOCC2)c([N+](=O)[O-])c1', 'pKi', '=', 10.15),
  ('CC1(C)CCC(CN2CCN(c3ccc(C(=O)NS(=O)(=O)c4ccc(NC5CCN(C6CC6)CC5)c([N+](=O)[O-])c4)c(Oc4cccc(Cl)c4)c3)CC2)=C(c2ccc(Cl)cc2)C1', 'pKi', '=', 9.81),
  ('COc1cc2[nH]ccc2cc1Oc1cc(N2CCN(CC3=C(c4ccc(Cl)cc4)CC(C)(C)CC3)CC2)ccc1C(=O)NS(=O)(=O)c1ccc(NC2CCN(C3CCOCC3)CC2)c([N+](=O)[O-])c1', 'pKi', '=', 9.76),
  ('CN1CCN(Nc2ccc(S(=O)(=O)NC(=O)c3ccc(N4CCN(CC5=C(c6ccc(Cl)cc6)CC(C)(C)CC5)CC4)cc3Oc3ccc4[nH]cc(CCN)c4c3)cc2[N+](=O)[O-])CC1', 'pKi', '=', 7.86),
  ('Cc1n[nH]c2cccc(Oc3cc(N4CCN(CC5=C(c6ccc(Cl)cc6)CC(C)(C)CC5)CC4)ccc3C(=O)NS(=O)(=O)c3ccc(NCCCN4CCOCC4)c([N+](=O)[O-])c3)c12', 'pKi', '=', 10.44),
  ('CN1CCC(Nc2ccc(S(=O)(=O)NC(=O)c3ccc(N4CCN(CC5=C(c6ccc(Cl)cc6)CC(C)(C)CC5)CC4)cc3Oc3ccccc3C(=O)N(C)C)cc2[N+](=O)[O-])CC1', 'pKi', '=', 9.66),
  ('CN1CCC(Nc2ccc(S(=O)(=O)NC(=O)c3ccc(N4CCN(CC5=C(c6ccc(Cl)cc6)CC(C)(C)CC5)CC4)cc3Oc3cc(F)c4[nH]ccc4c3)cc2[N+](=O)[O-])CC1', 'pKi', '=', 10.21),
  ('CC1(C)CC(c2ccc(Cl)cc2)=C(CN2CCN(c3ccc(C(=O)NS(=O)(=O)c4cnc(OCC5CCOCC5)c(C#N)c4)c(Oc4cc5cc[nH]c5cc4F)c3)CC2)CO1', 'pKi', '=', 10.27),
  ('CC1(C)CCC(CN2CCN(c3ccc(C(=O)NS(=O)(=O)c4ccc(NC5CCN(C6CC6)CC5)c([N+](=O)[O-])c4)c(Oc4cccc(F)c4)c3)CC2)=C(c2ccc(Cl)cc2)C1', 'pKi', '=', 9.68),
  ('CC1(C)CCC(CN2CCN(c3ccc(C(=O)NS(=O)(=O)c4ccc(NCCCN5CCOCC5)c(S(=O)(=O)C(F)(F)F)c4)c(Oc4cnc(N)c(Cl)c4)c3)CC2)=C(c2ccc(Cl)cc2)C1', 'pKi', '=', 9.42),
  ('CC1(C)CCC(CN2CCN(c3ccc(C(=O)NS(=O)(=O)c4ccc(NC5CCN(C6CCOCC6)CC5)c([N+](=O)[O-])c4)c(Oc4cccc5c4CC(=O)N5)c3)CC2)=C(c2ccc(Cl)cc2)C1', 'pKi', '>', 11.00),
  ('Nc1ncc(Oc2cc(N3CCN(CC4=C(c5ccc(Cl)cc5)CCC5(CCN(C(CF)CF)CC5)C4)CC3)ccc2C(=O)NS(=O)(=O)c2ccc(NCC3CCOCC3)c([N+](=O)[O-])c2)cc1Cl', 'pKi', '>', 11.00),
  ('CC1(C)CCC(CN2CCN(c3ccc(C(=O)NS(=O)(=O)c4ccc(N[C@@H]5CCCN(C(CF)CF)C5)c([N+](=O)[O-])c4)c(Oc4cnc(N)c(Cl)c4)c3)CC2)=C(c2ccc(Cl)cc2)C1', 'pKi', '=', 9.94),
  ('Cc1ccccc1Oc1cc(N2CCN(CC3=C(c4ccc(Cl)cc4)CC(C)(C)CC3)CC2)ccc1C(=O)NS(=O)(=O)c1ccc(NC2CCN(C)CC2)c([N+](=O)[O-])c1', 'pKi', '=', 9.92),
  ('CC1(C)CCC(CN2CCN(c3ccc(C(=O)NS(=O)(=O)c4ccc(NCC5COCCO5)c([N+](=O)[O-])c4)c(Oc4cc5cc[nH]c5cc4Cl)c3)CC2)=C(c2ccc(Cl)cc2)C1 (centres unmarked)', 'pKi', '=', 9.56),
  ('CN1CCC(Nc2ccc(S(=O)(=O)NC(=O)c3ccc(N4CCN(CC5=C(c6ccc(Cl)cc6)CC(C)(C)C5)CC4)cc3Oc3ccccc3Cl)cc2[N+](=O)[O-])CC1', 'pKi', '=', 9.64),
  ('CC1(C)CCC(CN2CCN(c3ccc(C(=O)NS(=O)(=O)c4ccc(NCC5COCCO5)c([N+](=O)[O-])c4)c(Oc4cnc(N)c(Br)c4)c3)CC2)=C(c2ccc(Cl)cc2)C1 (centres unmarked)', 'pKi', '=', 10.82),
  ('CN(C)CCCNc1ccc(S(=O)(=O)NC(=O)c2ccc(N3CCN(Cc4ccccc4-c4ccc(Cl)cc4)CC3)cc2Oc2cccc(OCc3ccccc3)c2)cc1[N+](=O)[O-]', 'pKi', '=', 8.59),
  ('O=C(NS(=O)(=O)c1ccc(NCC2CCOCC2)cc1)c1ccc(N2CCN(Cc3ccccc3-c3ccc(Cl)cc3)CC2)cc1Oc1cccc([N+](=O)[O-])c1', 'pKi', '=', 6.35);
